# Tested on: LU99A
# assay: relative viability (nuclei count vs DMSO), 5 days (fraction); higher = more cells survive
# test.context: first compound 0.05 µM
recorded.metric: relative viability
Please reply with the number alone, leaving off any unit.

Look over these answered cases.
compound	assay.target	value
CC1(C)CCC(c2ccc(Cl)cc2)=C(CN2CCN(c3ccc(C(=O)NS(=O)(=O)c4ccc(N[C@H](CCN5CCOCC5)CSc5ccccc5)c(S(=O)(=O)C(F)(F)F)c4)cc3)CC2)C1 [Navitoclax] + C[C@]1(O)C[C@@H](c2nc(-c3ccc4ccc(-c5ccccc5)nc4c3)c3c(N)nccn32)C1 [Linsitinib] (partner 1 µM)	LU99A	0.444
CC1(C)CCC(c2ccc(Cl)cc2)=C(CN2CCN(c3ccc(C(=O)NS(=O)(=O)c4ccc(N[C@H](CCN5CCOCC5)CSc5ccccc5)c(S(=O)(=O)C(F)(F)F)c4)cc3)CC2)C1 [Navitoclax] + CC(C)C[C@H](NC(=O)[C@H](Cc1ccccc1)NC(=O)c1cnccn1)B(O)O [Bortezomib] (partner 0.002 µM)	LU99A	0.857
CC1(C)CCC(c2ccc(Cl)cc2)=C(CN2CCN(c3ccc(C(=O)NS(=O)(=O)c4ccc(N[C@H](CCN5CCOCC5)CSc5ccccc5)c(S(=O)(=O)C(F)(F)F)c4)cc3)CC2)C1 [Navitoclax] + N=C(N)NC(=N)NCCc1ccccc1 [Phenformin] (partner 250 µM)	LU99A	0.726
CC1(C)CCC(c2ccc(Cl)cc2)=C(CN2CCN(c3ccc(C(=O)NS(=O)(=O)c4ccc(N[C@H](CCN5CCOCC5)CSc5ccccc5)c(S(=O)(=O)C(F)(F)F)c4)cc3)CC2)C1 [Navitoclax] + Cc1nc(NC(=O)N2CCC[C@H]2C(N)=O)sc1-c1ccnc(C(C)(C)C(F)(F)F)c1 [Alpelisib] (partner 2 µM)	LU99A	0.406
CC1(C)CCC(c2ccc(Cl)cc2)=C(CN2CCN(c3ccc(C(=O)NS(=O)(=O)c4ccc(N[C@H](CCN5CCOCC5)CSc5ccccc5)c(S(=O)(=O)C(F)(F)F)c4)cc3)CC2)C1 [Navitoclax] + CS(=O)(=O)CCNCc1ccc(-c2ccc3ncnc(Nc4ccc(OCc5cccc(F)c5)c(Cl)c4)c3c2)o1 [Lapatinib] (partner 2 µM)	LU99A	0.977

We now examine a further compound.
Could you tell me which relative viability is on file for CC1(C)CCC(c2ccc(Cl)cc2)=C(CN2CCN(c3ccc(C(=O)NS(=O)(=O)c4ccc(N[C@H](CCN5CCOCC5)CSc5ccccc5)c(S(=O)(=O)C(F)(F)F)c4)cc3)CC2)C1 [Navitoclax] + COc1cc2c(Oc3ccc(NC(=O)C4(C(=O)Nc5ccc(F)cc5)CC4)cc3F)ccnc2cc1OCCCN1CCOCC1 [Foretinib] (partner 0.25 µM) ?
0.459

----------
# Tested on: NCI-H2228
# assay: relative viability (nuclei count vs DMSO), 5 days (fraction); higher = more cells survive
# test.context: first compound 0.08 µM
We begin with a simple list: items and their reported relative viability.
Please reply with the number alone, leaving off any unit.

Look over these answered cases.
compound	recorded.metric	value
C=C1C(=O)O[C@@H](CCCCCCCC)[C@@H]1C(=O)O [C-75] + COc1cc2c(Oc3ccc(NC(=O)C4(C(=O)Nc5ccc(F)cc5)CC4)cc3F)ccnc2cc1OCCCN1CCOCC1 [Foretinib] (partner 0.25 µM)	relative viability	0.803
Oc1nc(-c2ccc(C(F)(F)F)cc2)nc2c1CSCC2 [XAV939] + C[C@@H](Oc1cc(-c2cnn(C3CCNCC3)c2)cnc1N)c1c(Cl)ccc(F)c1Cl [Crizotinib] (partner 1 µM)	relative viability	0.431
C=C1C(=O)O[C@@H](CCCCCCCC)[C@@H]1C(=O)O [C-75] + CC1(C)CCC(c2ccc(Cl)cc2)=C(CN2CCN(c3ccc(C(=O)NS(=O)(=O)c4ccc(N[C@H](CCN5CCOCC5)CSc5ccccc5)c(S(=O)(=O)C(F)(F)F)c4)cc3)CC2)C1 [Navitoclax] (partner 0.5 µM)	relative viability	1.04

Could you tell me which relative viability is on file for C=C1C(=O)O[C@@H](CCCCCCCC)[C@@H]1C(=O)O [C-75] + COc1cccc2cc(-c3nc([C@H]4CC[C@H](C(=O)O)CC4)n4ncnc(N)c34)[nH]c12 [OSI-027] (partner 0.5 µM) ?
0.534
